Where these numbers come from: patent US9040712B2

Item-by-item account of SMN Activity Fold (fold activation over DMSO control)
System: SMN protein
ASSAY EXPLANATION: cellular SMN ELISA (SMN protein elevation)
Format: cell-based
CONDITION NOTES: myoblast cell line derived from SMNdelta7 mouse model; 24 hours compound treatment; concentration range 100 pM-10 uM
Field: numeric (fold). Do not append units.

Use these answered entries as a reference point.
CN(c1nnc(-c2c(O)cc(-c3cnn(C)c3)cc2Cl)s1)C1CC(C)(C)NC(C)(C)C1 = 2.26
Cn1cc(-c2ccc(-c3nnc(N4CC5(CCNCC5)C4)s3)c(O)c2)cn1 = 2.44

Consider Oc1cc(-n2cccn2)ccc1-c1nnc(N2CCNCC2)s1 . Its measured SMN Activity Fold (fold activation over DMSO control) is 1.98

Consider COc1cc(-c2ccc(-c3nnc(N(C)C4CC(C)(C)NC(C)(C)C4)s3)c(OC)c2)ccn1 . Its measured SMN Activity Fold (fold activation over DMSO control) is 3.33
